molecular target: NADPH oxidase 2 (Homo sapiens); assay: NOX2-dependent H2O2 signal modulators, primary screen, NOX inhibitor project, cell-based, HEK293-NOX2, PMA-stimulated, Amplex Red fluorescence (AID 1159); details: 45 min, higher = more signal, called active from +8 up or from −8 down; also: test concentration not given here
Class (by z-score) -- low: < 0.2; medium: ≥ 0.2 and < 1; high: ≥ 1

Could you place CC(=O)NCCCC[C@@H]1NC(=O)[C@H]2C[C@@H](C(=O)O)[C@@H](c3cccc(OCCO)c3)N2C1=O in its proper category? Many thanks.
medium

Could you place COc1ccc(CCNC(=O)[C@@]2(C)c3ccccc3C(=O)N(Cc3ccc(OC(F)(F)F)cc3)[C@H]2c2ccc(CO)cc2)cc1 in its proper category? Many thanks.
low

Could you place O=C1NC(=O)C2C1C=CC(C(O)C1CCCCC1)N2Nc1ccccn1 (stereo not drawn) in its proper category? Many thanks.
low

Could you place C=CCOC(=O)[C@@H]1[C@H]2C(=O)O[C@H](c3ccccc3)[C@H](c3ccccc3)N2[C@H](c2ccc(OCCOC(=O)[C@H]3C[C@H]4C(=O)N[C@@H](CCCCN(C)C)C(=O)N4[C@H]3c3cccc(OCCO)c3)cc2)[C@@]12C(=O)Nc1ccccc12 in its proper category? Many thanks.
medium

Could you place CCCC1(C(=O)OC)C=C2C(=C(C(C)C)C(=O)C2C)CN1 (stereo not drawn) in its proper category? Many thanks.
medium

Could you place O=C1O[C@@H](c2ccccc2)[C@@H](c2ccccc2)N2[C@@H](c3ccccc3OCCO)[C@]3(C(=O)Nc4ccc(C#CC5(O)CCCCCC5)cc43)[C@@H](C(=O)N3CCCCCCC3)[C@H]12 in its proper category? Many thanks.
low

Could you place COCCOC(=O)N1C(=O)[C@@]2(c3cc(C#CCNC(N)=O)ccc31)[C@H](c1ccccc1OCCO)N1[C@H](c3ccccc3)[C@H](c3ccccc3)OC(=O)[C@H]1[C@@H]2C(=O)N1CCCCCCC1 in its proper category? Many thanks.
high

Could you place COc1cc(Cc2cc3c(c(-c4ccccc4)n2)[Si](C(C)C)(C(C)C)OC3)cc(OC)c1OC in its proper category? Many thanks.
high

Could you place O=C(N1CCOCC1)[C@]1(CCS(=O)(=O)c2ccccc2)N=C(c2ccc(OCCCO)cc2)O[C@@H]1c1ccccc1 in its proper category? Many thanks.
medium

Could you place CCCCCN1CC=CC23O[C@@H]4/C=C\CCCOC(=O)C4[C@H]2C(=O)N(CCCCCO)[C@@H]3C1=O (stereo partly drawn) in its proper category? Many thanks.
medium

Could you place C=C[C@H](OC)[C@@H](O)c1ccc(OC)c(O)c1 in its proper category? Many thanks.
low

---

test: basal RPMI8226 mitochondrial membrane potential changes, profiling panel, cell-based, JC-1 fluorescence, 24 h, 100 nL compound (AID 1169); details: RPMI8226 myeloma, JC-1 mitochondrial potential fluorescence, higher = more signal; also: test concentration not given here
Class (by z-score) -- c1 (below -0.6), c2 (-0.6 to below -0.3), c3 (-0.3 or more)

Could you place COc1cccc(C)c1NC(=O)O[C@H]1[C@H](OC(=O)Nc2ccc3c(c2)OCO3)[C@H](OC(=O)Nc2ccc3c(c2)OCO3)[C@@H](OC)O[C@@H]1CO in its proper category? Many thanks.
c3

Could you place C=CCNC(=O)[C@H]1[C@@H]2C(=O)O[C@@H](c3ccccc3)[C@@H](c3ccccc3)N2[C@@H](c2ccc(O)cc2)[C@]12C(=O)N(C(=O)OCCOC)c1ccc(C#Cc3ccc(OC)cc3)cc12 in its proper category? Many thanks.
c1

Could you place COc1cccc(C)c1NC(=O)O[C@H]1[C@H](OC(=O)Nc2ccccc2-c2ccccc2)[C@@H](OC(=O)Nc2ccccc2-c2ccccc2)[C@@H](OC)O[C@@H]1CO in its proper category? Many thanks.
c1

Could you place CC(C)C(=C=CC[C@H](O)c1cccc(OCCO)c1)C[C@H](O)c1ccccn1 in its proper category? Many thanks.
c3

Could you place [N-]=[N+]=NCc1ccccc1[C@H]1OC(c2ccc(OCCCO)cc2)=N[C@@]1(CCS(=O)(=O)c1ccccc1)C(=O)O in its proper category? Many thanks.
c3

Could you place O=C(NC1CC1)[C@@H]1c2ccccc2C(=O)N(C2CCCCC2)[C@H]1c1ccc(CO)cc1 in its proper category? Many thanks.
c3

Could you place CC(C)(C)OC(=O)CC[C@@]1(C(=O)N2CCOCC2)N=C(c2ccc(OCCCO)cc2)O[C@@H]1c1ccccc1CN=[N+]=[N-] in its proper category? Many thanks.
c2

Could you place COc1ccc([Si](C)(C)[C@@H]2[C@@H](CC(=O)N3Cc4ccccc4C[C@H]3CO)O[C@]3(C(=O)N(Cc4ccc(I)cc4)c4ccccc43)[C@H]2C)cc1 in its proper category? Many thanks.
c2

Could you place COCCOC(=O)N1C(=O)[C@@]2(c3cc(C#CCC(C(=O)OC)C(=O)OC)ccc31)[C@H](c1ccc(O)cc1)N1[C@H](c3ccccc3)[C@H](c3ccccc3)OC(=O)[C@H]1[C@@H]2C(=O)N1CCc2cc(OC)c(OC)cc2C1 in its proper category? Many thanks.
c1

Could you place [N-]=[N+]=NCc1ccccc1[C@H]1OC(c2ccc(OCCCO)cc2)=N[C@@]1(Cc1ccccc1N=[N+]=[N-])C(=O)O in its proper category? Many thanks.
c1

Could you place NCCCCCCNC(=O)[C@@H]1C[C@@H]2C(=O)NCC(=O)N2[C@@H]1c1cccc(OCCO)c1 in its proper category? Many thanks.
c3

Could you place C=CCNC(=O)[C@@H]1[C@H]2C(=O)O[C@H](c3ccccc3)[C@H](c3ccccc3)N2[C@H](c2ccc(O)cc2)[C@@]12C(=O)N(C(=O)OCCOC)c1ccc(C#CCC(C(=O)OC)C(=O)OC)cc12 in its proper category? Many thanks.
c3

Could you place COc1cc(CO)cc(I)c1O[C@H]1C=C(C(=O)NCCO)C[C@@H](N(CCN2CCOCC2)C(=O)C2CCCO2)[C@@H]1O (some centres not stated) in its proper category? Many thanks.
c3

Could you place CC(C)(C)OC(=O)CC[C@]1(C(=O)N2CCOCC2)COC(c2ccc(OCCCO)cc2)=N1 in its proper category? Many thanks.
c2

Could you place O=C1C2C=CC(C(O)C3CCCCC3)N(Nc3ccccc3F)C2C(=O)N1c1ccccc1 (configuration not stated) in its proper category? Many thanks.
c3

Could you place COC(=O)C(CC#Cc1ccc2c(c1)[C@]1(C(=O)N2)[C@H](C(=O)N2CCCCCCC2)[C@H]2C(=O)O[C@H](c3ccccc3)[C@H](c3ccccc3)N2[C@@H]1c1ccc(OCCO)cc1)C(=O)OC in its proper category? Many thanks.
c1

Could you place COc1ccc(CCNC(=O)[C@@H]2c3ccccc3C(=O)N(Cc3cc(F)cc(C(F)(F)F)c3)[C@H]2c2ccc(CO)cc2)cc1 in its proper category? Many thanks.
c2

Could you place COc1ccc([Si](C)(C)[C@H]2[C@H](CC(=O)N(CCO)Cc3ccccc3)O[C@@]3(C(=O)N(c4ccccc4)c4ccccc43)[C@@H]2C)cc1 in its proper category? Many thanks.
c1

Could you place COc1ccc(NN2C(C(O)c3ccccc3)C=CC3C(=O)N(C4CCCCC4)C(=O)C32)cc1 (configuration not stated) in its proper category? Many thanks.
c2

Could you place C=C[C@H](C)[C@@H](OC(=O)Nc1ccc(SC)cc1)c1ccc(OCCO)cc1 in its proper category? Many thanks.
c1

Could you place Cc1ccc(S[C@]2(C(=O)NCc3ccccc3)CC(=O)N(Cc3ccccc3Cl)[C@@H]2c2ccc(CO)cc2)cc1 in its proper category? Many thanks.
c2

Could you place COc1ccc([Si](C)(C)[C@H]2[C@H](CC(=O)N(CCO)Cc3ccccc3)O[C@@]3(C(=O)N(Cc4cccc(N5CCCCC5=O)c4)c4ccccc43)[C@@H]2C)cc1 in its proper category? Many thanks.
c1

Could you place Cc1c(NC(=O)/C(C#N)=C/C=C/c2ccc([N+](=O)[O-])cc2)c(=O)n(-c2ccccc2)n1C in its proper category? Many thanks.
c3

Could you place C=CCNC(=O)[C@H]1[C@@H]2C(=O)O[C@@H](c3ccccc3)[C@@H](c3ccccc3)N2[C@@H](c2ccc(OCCO)cc2)[C@]12C(=O)Nc1ccc(C#Cc3ccc(OC)cc3)cc12 in its proper category? Many thanks.
c1

Could you place C=CC[C@H](O)c1ccc(O)c2ccccc12 in its proper category? Many thanks.
c1

Could you place N#Cc1ccc(NN2C(C(O)c3ccc(B(O)O)cc3)C=CC3CN(c4ccccc4)C(=O)C32)cc1 (configuration not stated) in its proper category? Many thanks.
c3
